Each recorded value in this set is attributed to paper PMC7378079.

- tgt: T1, CFP-ARC5 (TNKS1) (human, N-terminal mCerulean fusion omitted; conventional ARC limits)
- T1 chain: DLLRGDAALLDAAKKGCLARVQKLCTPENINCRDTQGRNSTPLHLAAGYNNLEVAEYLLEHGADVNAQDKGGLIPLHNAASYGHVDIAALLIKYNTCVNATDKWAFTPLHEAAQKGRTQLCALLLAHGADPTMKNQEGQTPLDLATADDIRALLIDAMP
- protocol-summary: FRET or BRET; titration for Kd after Song et al.: CFP-fusion kept constant (50 nM to 1.1 µM), YFP-fusion 0-4,000 nM; FRET emission on excitation at 430 nm; assay buffer 10 mM Bis-Tris-Propane pH 7.0, 3% PEG20,000, 0.01% Triton-X100, 0.5 mM TCEP; 384-well plates, 4 replicates; the paper calls the constants an estimation
- condition-context: both partners purified
observation-type: pKd
Give bare numbers, as −log10 of the molar value.

Query: Requested read-out: pKd. Entry: REAGDGEE (also called TBM (REAGDGEE); YFP-fused TBM; source: E. coli BL21(DE3), purified (IMAC); not shown: mCitrine (YFP), N-terminal, kept) [YFP-TBM]
Result: 7.57
